Published IC50 for Arginase-2, mitochondrial (Homo sapiens, UniProt P78540), assembled from different documents, is shown next.

# compound, subjectOfTest, IC50
rows = [
    ("NC(CCCCB(O)O)(CCCN1CCc2ccccc2C1)C(=O)O (stereo not shown)", "Arginase-2, mitochondrial (Homo sapiens, UniProt P78540)", "101 to 500 nM"),
]

Give measured IC50 for every item shown.
1. N[C@@]1(C(=O)O)C[C@@H](CNC2CCC2)C[C@@H]1CCCB(O)O
2. NC(CCCCB(O)O)(C(=O)O)[C@H]1C[C@@H](NCCc2ccc(F)c(F)c2)C1 (stereo partly shown)
3. NC(CCCCB(O)O)(C(=O)O)[C@H]1C[C@@H](NCc2cccc(-c3ccccc3)c2)C1 (stereo partly shown)
4. N[C@@]1(C(=O)O)CN(C2CCNC2)C[C@@H]1CCCB(O)O (stereo partly shown)
5. CCN(CCO)CC[C@](N)(CCCCB(O)O)C(=O)O
6. NC(CCCCB(O)O)(C(=O)O)[C@H]1C[C@@H](NC[C@@H]2Cc3ccccc3CN2)C1 (stereo partly shown)
7. CC(C)CNCC[C@](N)(CCCCB(O)O)C(=O)O
8. CNC(Cc1ccccc1)C(=O)N1C[C@H](CCCB(O)O)[C@](N)(C(=O)O)C1 (stereo partly shown)

Result:
["101 to 500 nM", "26 to 100 nM", "26 to 100 nM", "0.1 to 250 nM", "101 to 500 nM", "26 to 100 nM", "101 to 500 nM", "1000 to 2000 nM"]

###

Published IC50 for Arginase-2, mitochondrial (Homo sapiens, UniProt P78540), assembled from different documents, is shown next.

// solved cases for IC50 follow
# compound, IC50
records = [
    ("N[C@@]1(C(=O)O)CN(CCN2CCCC2)C[C@@H]1CCCB(O)O", "0.1 to 250 nM"),
    ("NC(CCCCB(O)O)(C(=O)O)[C@H]1C[C@@H](NCc2ccc(O)cc2)C1 (some centres unmarked)", "26 to 100 nM"),
    ("NC(CCCCB(O)O)(C(=O)O)[C@H]1C[C@@H](NCc2ccc(-c3ccc(Cl)cc3)cc2)C1 (some centres unmarked)", "0.1 to 25 nM"),
    ("N[C@@]1(C(=O)O)CCC[C@@H]1CCCB(O)O", "101 to 500 nM"),
]

Turning now to a further record.
Recorded result, NC(CCCCB(O)O)(C(=O)O)[C@H]1C[C@@H](NCCc2ccc(-c3ccccc3)cc2)C1 (some centres unmarked) , IC50: 0.1 to 25 nM

###

Published IC50 for Arginase-2, mitochondrial (Homo sapiens), assembled from different documents, is shown next.

// solved cases for IC50 follow
# molecule, reportedResult
data = [
    ("N[C@@]1(C(=O)O)CN(C2CCC(C(=O)O)CC2)C[C@@H]1CCCB(O)O (some centres unmarked)", "1000 to 2000 nM"),
    ("N[C@@]1(C(=O)O)CN(C(=O)c2ccc(F)cc2)C[C@@H]1CCCB(O)O (racemic)", "251 to 1000 nM"),
]

Give measured IC50 for every item shown.
1. N[C@@]1(C(=O)O)CNC[C@@H]1CCCB(O)O
2. N[C@](CCCCB(O)O)(CCNC1Cc2ccccc2C1)C(=O)O
3. NC(CCCCB(O)O)(C(=O)O)[C@H]1C[C@@H](NCc2ccc(-c3ccc(C(F)(F)F)cc3)cc2)C1 (some centres unmarked)

Result:
1: 101 to 500 nM; 2: 101 to 500 nM; 3: 0.1 to 25 nM

###

Published IC50 for Arginase-2, mitochondrial (Homo sapiens, UniProt P78540), assembled from different documents, is shown next.

// solved cases for IC50 follow
# molecule, IC50
measured = [
    ("N[C@@]1(C(=O)O)CCNC[C@@H]1CCCB(O)O", "0.251 to 1 µM"),
    ("CNC(CCCCB(O)O)(CCN1CCC(C)(C)CC1)C(=O)O (stereo not drawn)", "0.101 to 0.5 µM"),
    ("N[C@@]1(C(=O)O)CN(c2cncc(C(=O)O)c2)C[C@@H]1CCCB(O)O", "0.251 to 1 µM"),
]

Give measured IC50 for every item shown.
1. Cn1ccnc1CN1C[C@H](CCCB(O)O)[C@](N)(C(=O)O)C1
2. N[C@@]1(C(=O)O)CN(C2CCCNC2)C[C@@H]1CCCB(O)O (stereo partly drawn)
3. N[C@@]1(C(=O)O)CN(C(=O)Nc2ccc(Cl)cc2)C[C@@H]1CCCB(O)O
4. N[C@@]1(C(=O)O)CN(CCNc2ccc(-c3ccccc3)cc2)C[C@@H]1CCCB(O)O
5. CC(C)NCC[C@](N)(CCCCB(O)O)C(=O)O
6. N[C@@]1(C(=O)O)C[C@@H](CNCc2ccc(-c3ccc(Cl)cc3)cc2)C[C@@H]1CCCB(O)O

Result:
1: 0.251 to 1 µM; 2: 0.251 to 1 µM; 3: 0.251 to 1 µM; 4: 0.0001 to 0.25 µM; 5: 0.101 to 0.5 µM; 6: 0.026 to 0.1 µM

###

Published IC50 for Arginase-2, mitochondrial (Homo sapiens, UniProt P78540), assembled from different documents, is shown next.

# molecule, subjectOfTest, IC50
rows = [
    ("NC(CCCCB(O)O)(C(=O)O)[C@H]1C[C@@H](NCc2ccc(Oc3ccc(Cl)cc3)cc2)C1 (stereo partly drawn)", "Arginase-2, mitochondrial (Homo sapiens, UniProt P78540)", "0.0001 to 0.025 µM"),
    ("CN[C@@]1(C(=O)O)CCC[C@@H]1CCCB(O)O", "Arginase-2, mitochondrial (Homo sapiens, UniProt P78540)", "0.501 to 1.5 µM"),
    ("NC(CCCCB(O)O)(C(=O)O)[C@H]1C[C@@H](NCc2ccccc2N2CCOCC2)C1 (stereo partly drawn)", "Arginase-2, mitochondrial (Homo sapiens, UniProt P78540)", "0.026 to 0.1 µM"),
    ("CNC(CCCCB(O)O)(CCN1CCc2c(Cl)cccc2C1)C(=O)O (stereo not drawn)", "Arginase-2, mitochondrial (Homo sapiens, UniProt P78540)", "0.101 to 0.5 µM"),
    ("NC(Cc1ccccc1)CN1C[C@H](CCCB(O)O)[C@](N)(C(=O)O)C1 (mixture of isomers)", "Arginase-2, mitochondrial (Homo sapiens, UniProt P78540)", "0.0001 to 0.25 µM"),
    ("NC(CCCCB(O)O)(C(=O)O)[C@H]1CC[C@@H](NCc2ccc(-c3ccccc3)cc2)C1 (stereo partly drawn)", "Arginase-2, mitochondrial (Homo sapiens, UniProt P78540)", "0.026 to 0.1 µM"),
]

Give measured IC50 for every item shown.
1. CNC(CCCCB(O)O)(C(=O)O)[C@H]1C[C@@H](N)C1 (stereo partly drawn)
2. N[C@@]1(C(=O)O)CN(CC2Cc3c(Cl)cc(Cl)cc3CN2)C[C@@H]1CCCB(O)O (stereo partly drawn)
3. NC1(C(=O)O)CCSC1CCCB(O)O (stereo not drawn)

Result:
1. 0.101 to 0.5 µM
2. 0.0001 to 0.25 µM
3. 2 to 5 µM

###

Published IC50 for UniProt P78540, assembled from different documents, is shown next.

# compound, reportedResult
measured = [
    ("CNC(CCCCB(O)O)(CCN1CCC(c2ccccc2)CC1)C(=O)O (stereo not shown)", "101 to 500 nM"),
    ("N[C@@]1(C(=O)O)CN(Cc2ccnc3ccccc23)C[C@@H]1CCCB(O)O", "251 to 1000 nM"),
    ("N[C@@]1(C(=O)O)CN(Cc2cccnc2)C[C@@H]1CCCB(O)O", "1000 to 2000 nM"),
]

Give measured IC50 for every item shown.
1. N[C@@]1(C(=O)O)CN(CCNCc2ccc(Cl)c(Cl)c2)C[C@@H]1CCCB(O)O
2. N[C@@]1(C(=O)O)CN(Cc2c[nH]cn2)C[C@@H]1CCCB(O)O
3. N[C@@]1(C(=O)O)CN(C[C@@H]2Cc3ccccc3CN2)C[C@@H]1CCCB(O)O
4. NC1CCCCC1N1C[C@H](CCCB(O)O)[C@](N)(C(=O)O)C1 (stereo partly shown)
5. NC(CCCCB(O)O)(C(=O)O)[C@H]1C[C@@H](NCCCc2cc(F)cc(Cl)c2)C1 (stereo partly shown)
6. N[C@@]1(C(=O)O)CN(CC2CCCCN2)C[C@@H]1CCCB(O)O (stereo partly shown)
7. N[C@@]1(C(=O)O)CN(CCNCc2ccccc2)C[C@@H]1CCCB(O)O

Result:
0.1 to 250 nM
251 to 1000 nM
0.1 to 250 nM
0.1 to 250 nM
0.1 to 25 nM
0.1 to 250 nM
0.1 to 250 nM

Give measured IC50 for every item shown.
1. CN(C)[C@H]1C[C@H](CCCB(O)O)[C@](N)(C(=O)O)C1 (racemic)
2. Nc1ccccc1S(=O)(=O)N1C[C@H](CCCB(O)O)[C@](N)(C(=O)O)C1
3. NC(CCCCB(O)O)(C(=O)O)[C@H]1C[C@@H](NCc2cccc(-c3ccc(Cl)cc3)c2)C1 (stereo partly shown)
4. NC(CCCCB(O)O)(C(=O)O)[C@H]1C[C@@H](NCc2ccc(-c3ccccc3F)c(F)c2)C1 (mixture of isomers)
5. NC(CCCCB(O)O)(CCCN1CCc2c(Cl)cccc2C1)C(=O)O (stereo not shown)
6. NC(CCCCB(O)O)(C(=O)O)[C@H]1CC[C@H](NCc2ccc(-c3ccccc3)cc2)C1 (stereo in doubt)
7. NC(CCCCB(O)O)(C(=O)O)[C@H]1C[C@@H](NCc2ccc(-c3ccc(Cl)cc3)c(F)c2F)C1 (mixture of isomers)
8. N[C@@]1(C(=O)O)C[C@@H](CNC2Cc3ccccc3C2)C[C@@H]1CCCB(O)O

Result:
["0.1 to 250 nM", "1000 to 2000 nM", "0.1 to 25 nM", "26 to 100 nM", "101 to 500 nM", "26 to 100 nM", "26 to 100 nM", "101 to 500 nM"]

Give measured IC50 for every item shown.
1. NC(CCCCB(O)O)(C(=O)O)[C@H]1C[C@@H](NCc2ccc(-c3ccc(Cl)c(Cl)c3)cc2)C1 (stereo partly shown)
2. N[C@@]1(C(=O)O)CN(C(=O)C2Cc3ccccc3CN2)C[C@@H]1CCCB(O)O (mixture of isomers)
3. N[C@@]1(C(=O)O)CN(CC2Cc3ccc(Cl)cc3CN2)C[C@@H]1CCCB(O)O (stereo partly shown)
4. NC1(c2ccc(Cl)cc2)CC(C(N)(CCCCB(O)O)C(=O)O)C1 (stereo not shown)
5. CNC(CCCCB(O)O)(CCN1CCc2ccccc2C1)C(=O)O (stereo not shown)
6. NC(CCCCB(O)O)(C(=O)O)[C@H]1C[C@@H](NCc2ccccc2-c2ccc(Cl)cc2)C1 (stereo partly shown)

Result:
1. 0.1 to 25 nM
2. 251 to 1000 nM
3. 0.1 to 250 nM
4. 101 to 500 nM
5. 101 to 500 nM
6. 26 to 100 nM

Recorded result, N[C@@]1(C(=O)O)CCO[C@H]1CCCB(O)O , IC50: 0.1 to 250 nM
